Cited source: patent US20190262327A1

- TESTED TARGET: T1, human Amyloid beta 1-42 peptide (Homo sapiens, UniProt P05067)
- T1 construct: biotinylated human Amyloid beta 1-42 peptide (rpeptide, USA; cat: A1117); purchased rPeptide, USA A1117; host or cells: synthetic peptide
- T1 sequence (P05067 672-713): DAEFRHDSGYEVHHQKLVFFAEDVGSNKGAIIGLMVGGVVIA
- METHOD SUMMARY: Surface Plasmon Resonance kinetic profiling of purified scFv (ProteOn)
- Type: binding
- MEASUREMENT SETUP: biotinylated human Amyloid beta 1-42 on streptavidin chip
ENDPOINT LABEL: ka

• Abet0328: optimized anti-Aβ1-42 clone derived from Abet0144-GL (protein, left off: small tags and cut ends, optimized anti-Aβ1-42 clone derived from Abet0144-GL) scFv (part 1 of 2): EVQLLESGGGLVQPGGSLRLSCAASRDPFKADTMWWVRQAPRKRLEWVSVIGAHTTNSAYADSVKGRFTISRDNSKNTLYLQMNSLRAEDTAVYYCAREWMDRSRPYYYYGMDVWGQGTLVTVSS scFv (part 2 of 2): SYELTQPPSVSVSPGQTVSITCSGRNLEDKFASWYQQKPGQSPVLVIYRDDKRPSGVPERFSASNSGHTATLTISGTQATDEADYYCSSQDTVTRVFGGGTKLTVL = 141000 M⁻¹ s⁻¹
